Tested on: 521955-158-R2-J5-PDC complex spheroids, viability
Experiment: Anticancer human tumor 521955-158-R2-J5-PDC patient-derived pancreatic carcinoma cell line growth inhibition [RAS]
Conditions: second compound 3.16 µM; first compound 0.01 µM; active compounds read low
Text: RAS pathway inhibitors in Combinations in Complex Spheroids A high-throughput screen of multi-cell type tumor spheroids was designed to identify active combinations of RAS pathway inhibitors and targeted small molecules. Complex spheroids include a stromal component modeled by human endothelial cells (HUVEC) and fibroblasts modeled by human mesenchymal stem cells (MSCs). […] Compounds. […] If the clinical Cmax for an agent had not been determined, the highest concentration tested was 10 microM. […]
Entries annotated with measured viability, T/C

{"MOLECULE": "C=CC(=O)Nc1cc(Nc2nccc(-c3cn(C)c4ccccc34)n2)c(OC)cc1N(C)CCN(C)C + C#Cc1c(F)ccc2cc(O)cc(-c3ncc4c(N5CC6CCC(C5)N6)nc(OCC56CCCN5CC(F)C6)nc4c3F)c12", "viability, T/C": "53.4%"}
{"MOLECULE": "C=CC(=O)N1CCN(c2nc(OCC3CCCN3C)nc3c(F)c(-c4nc(N)cc(C)c4C(F)(F)F)c(Cl)cc23)C(C)C1 (stereo not drawn) + C#Cc1c(F)ccc2cc(O)cc(-c3ncc4c(N5CC6CCC(C5)N6)nc(OCC56CCCN5CC(F)C6)nc4c3F)c12", "viability, T/C": "52.1%"}

// below: viability, T/C requested for another molecule
Task: Field request: viability, T/C | item: O=C(c1ccc(F)c(F)c1Nc1ccc(I)cc1F)N1CC(O)([C@@H]2CCCCN2)C1 + C#Cc1c(F)ccc2cc(O)cc(-c3ncc4c(N5CC6CCC(C5)N6)nc(OCC56CCCN5CC(F)C6)nc4c3F)c12
Output: 41.9%

----------
System: 521955-158-R2-J5-PDC complex spheroids, viability
Assay: Anticancer human tumor 521955-158-R2-J5-PDC cell line growth inhibition [RAS];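 further: spheroids also contain HUVEC endothelial cells and mesenchymal stem cells as stroma; compound exposure lasted seven days before the viability read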
Conditions: second compound 1 µM; first compound 0.0316 µM; active compounds read low
From the text: RAS pathway inhibitors in Combinations in Complex Spheroids A high-throughput screen of multi-cell type tumor spheroids was designed to identify active combinations of RAS pathway inhibitors and targeted small molecules. Complex spheroids include a stromal component modeled by human endothelial cells (HUVEC) and fibroblasts modeled by human mesenchymal stem cells (MSCs). […] Compounds. […] If the clinical Cmax for an agent had not been determined, the highest concentration tested was 10 microM. […]
Entries annotated with measured viability, T/C
The response must be a number in % with no trailing unit.

{"MOLECULE": "O=C(c1ccc(F)c(F)c1Nc1ccc(I)cc1F)N1CC(O)([C@@H]2CCCCN2)C1 + C=CC(=O)N1CCN(c2nc(OCC3CCCN3C)nc3c(F)c(-c4nc(N)cc(C)c4C(F)(F)F)c(Cl)cc23)C(C)C1", "QUANTITY": "viability, T/C", "MEASUREMENT_UNITS": "%", "REPORTED_VALUE": 42.6}

Task: Field request: viability, T/C | item: C[C@@H](NC(=O)c1ncnc(N)c1Cl)c1ncc(C(=O)Nc2cc(C(F)(F)F)c(Cl)cn2)s1 + C#Cc1c(F)ccc2cc(O)cc(-c3ncc4c(N5CC6CCC(C5)N6)nc(OCC56CCCN5CC(F)C6)nc4c3F)c12
Output: 61.2

Task: Field request: viability, T/C | item: CCC(CC)c1cc(NC2CCC(N)C2)n2nccc2n1 (configuration not stated) + C=CC(=O)N1CCN(c2nc(OCC3CCCN3C)nc3c(F)c(-c4nc(N)cc(C)c4C(F)(F)F)c(Cl)cc23)C(C)C1
Output: 102

Task: Field request: viability, T/C | item: C=CC(=O)Nc1cc(Nc2nccc(-c3cn(C)c4ccccc34)n2)c(OC)cc1N(C)CCN(C)C + C=CC(=O)N1CCN(c2nc(OCC3CCCN3C)nc3c(F)c(-c4nc(N)cc(C)c4C(F)(F)F)c(Cl)cc23)C(C)C1
Output: 78.7

Task: Field request: viability, T/C | item: C=CC(=O)Nc1cc(Nc2nccc(-c3cn(C)c4ccccc34)n2)c(OC)cc1N(C)CCN(C)C + C#Cc1c(F)ccc2cc(O)cc(-c3ncc4c(N5CC6CCC(C5)N6)nc(OCC56CCCN5CC(F)C6)nc4c3F)c12
Output: 51.1

Task: Field request: viability, T/C | item: Cc1nc(N2CCC3(CC2)COC(C)C3N)c(CO)nc1Sc1ccnc(N)c1Cl (configuration not stated) + C#Cc1c(F)ccc2cc(O)cc(-c3ncc4c(N5CC6CCC(C5)N6)nc(OCC56CCCN5CC(F)C6)nc4c3F)c12
Output: 45.3

----------
test system: 521955-158-R2-J5-PDC complex spheroids, viability; experiment: Anticancer human tumor 521955-158-R2-J5-PDC cell line growth inhibition [RAS]; conditions: second compound 0.03 µM; first compound 0.0316 µM; active compounds read low;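 further: spheroids also contain HUVEC endothelial cells and mesenchymal stem cells as stroma; compound exposure lasted seven days before the viability read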
QUANTITY: viability, T/C (%)
The response must be a number in % with no trailing unit.

{"MOLECULE": "CC(C)n1nc(-c2ccc3oc(N)nc3c2)c2c(N)ncnc21 + CCn1c(-c2cccnc2C(C)OC)c2c3cc(ccc31)N1CCOC(CC(NC(=O)C(C(C)C)N(C)C(=O)C3(F)CCN(C(=O)C#CC(C)(C)N(C)C)CC3)C(=O)N3CCCC(N3)C(=O)OCC(C)(C)C2)C1", "viability, T/C (%)": 48.6}
{"MOLECULE": "CC(=O)OC12COC1CC(O)C1(C)C(=O)C(O)C3=C(C)C(OC(=O)C(O)C(NC(=O)OC(C)(C)C)c4ccccc4)CC(O)(C(OC(=O)c4ccccc4)C21)C3(C)C (centres undefined) + CCn1c(-c2cc(N3CCN(C)CC3)cnc2C(C)OC)c2c3cc(ccc31)-c1csc(n1)CC(NC(=O)C1CC1C)C(=O)N1CCCC(N1)C(=O)OCC(C)(C)C2", "viability, T/C (%)": 12.9}
{"MOLECULE": "CCC(CC)c1cc(NC2CCC(N)C2)n2nccc2n1 (centres undefined) + CCn1c(-c2cccnc2C(C)OC)c2c3cc(ccc31)N1CCOC(CC(NC(=O)C(C(C)C)N(C)C(=O)C3(F)CCN(C(=O)C#CC(C)(C)N(C)C)CC3)C(=O)N3CCCC(N3)C(=O)OCC(C)(C)C2)C1", "viability, T/C (%)": 99.2}

// below: viability, T/C requested for another molecule
Task: Field request: viability, T/C | item: CC1(O)CCCC1n1c(=O)c(C(F)F)cc2cnc(NC3CCN(S(C)(=O)=O)CC3)nc21 (centres undefined) + CCn1c(-c2cccnc2C(C)OC)c2c3cc(ccc31)N1CCOC(CC(NC(=O)C(C(C)C)N(C)C(=O)C3(F)CCN(C(=O)C#CC(C)(C)N(C)C)CC3)C(=O)N3CCCC(N3)C(=O)OCC(C)(C)C2)C1
Output: 89.7

----------
Entries annotated with measured viability, T/C
system: 521955-158-R2-J5-PDC complex spheroids, viability; experiment: Anticancer human tumor 521955-158-R2-J5-PDC cell line growth inhibition [RAS]; details: second compound 0.0949 µM; first compound 0.316 µM; active compounds read low;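 further: spheroids also contain HUVEC endothelial cells and mesenchymal stem cells as stroma; compound exposure lasted seven days before the viability read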
The response must be a number in % with no trailing unit.

Take a look at these entries with their results.
{"COMPOUND": "CC1(O)CCCC1n1c(=O)c(C(F)F)cc2cnc(NC3CCN(S(C)(=O)=O)CC3)nc21 (stereo unspecified) + CCn1c(-c2cc(N3CCN(C)CC3)cnc2C(C)OC)c2c3cc(ccc31)-c1csc(n1)CC(NC(=O)C1CC1C)C(=O)N1CCCC(N1)C(=O)OCC(C)(C)C2", "SYSTEM_TESTED": "521955-158-R2-J5-PDC complex spheroids, viability", "QUANTITY": "viability, T/C", "REPORTED_VALUE": 13.9}
{"COMPOUND": "C=CC(=O)Nc1cc(Nc2nccc(-c3cn(C)c4ccccc34)n2)c(OC)cc1N(C)CCN(C)C + CCn1c(-c2cc(N3CCN(C)CC3)cnc2C(C)OC)c2c3cc(ccc31)-c1csc(n1)CC(NC(=O)C1CC1C)C(=O)N1CCCC(N1)C(=O)OCC(C)(C)C2", "SYSTEM_TESTED": "521955-158-R2-J5-PDC complex spheroids, viability", "QUANTITY": "viability, T/C", "REPORTED_VALUE": 11.6}

Task: Field request: viability, T/C | item: CCC(CC)c1cc(NC2CCC(N)C2)n2nccc2n1 (stereo unspecified) + CCn1c(-c2cccnc2C(C)OC)c2c3cc(ccc31)N1CCOC(CC(NC(=O)C(C(C)C)N(C)C(=O)C3(F)CCN(C(=O)C#CC(C)(C)N(C)C)CC3)C(=O)N3CCCC(N3)C(=O)OCC(C)(C)C2)C1
Output: 97.4

Task: Field request: viability, T/C | item: CC(=O)OC12COC1CC(O)C1(C)C(=O)C(O)C3=C(C)C(OC(=O)C(O)C(NC(=O)OC(C)(C)C)c4ccccc4)CC(O)(C(OC(=O)c4ccccc4)C21)C3(C)C (stereo unspecified) + CCn1c(-c2cc(N3CCN(C)CC3)cnc2C(C)OC)c2c3cc(ccc31)-c1csc(n1)CC(NC(=O)C1CC1C)C(=O)N1CCCC(N1)C(=O)OCC(C)(C)C2
Output: 11.9

Task: Field request: viability, T/C | item: C=CC(=O)N1CCN(c2nc(OCC3CCCN3C)nc3c(F)c(-c4nc(N)cc(C)c4C(F)(F)F)c(Cl)cc23)C(C)C1 (stereo unspecified) + CCn1c(-c2cc(N3CCN(C)CC3)cnc2C(C)OC)c2c3cc(ccc31)-c1csc(n1)CC(NC(=O)C1CC1C)C(=O)N1CCCC(N1)C(=O)OCC(C)(C)C2
Output: 15.1

Task: Field request: viability, T/C | item: C[C@@H](NC(=O)c1ncnc(N)c1Cl)c1ncc(C(=O)Nc2cc(C(F)(F)F)c(Cl)cn2)s1 + CCn1c(-c2cc(N3CCN(C)CC3)cnc2C(C)OC)c2c3cc(ccc31)-c1csc(n1)CC(NC(=O)C1CC1C)C(=O)N1CCCC(N1)C(=O)OCC(C)(C)C2
Output: 18.7
